System: SF-295 CNS
Measurement Notes: NCI tumour cell line growth inhibition, 48 h
Outcome Measure: TGI

# Compound, System, Outcome Measure, Observed
rows = [
    ("CC1CC[C@@]2(OC1)OC1CC3C4CCC5C[C@@H](OC6OC(CO)C(OC7OC(CO)C(O)C(OC8OC(CO)C(O)C(OC9OC(CO)C(O)C(O)C9O)C8O)C7OC7OC(CO)C(O)C(O)C7O)C(O)C6O)[C@H](O)C[C@]5(C)C4CC[C@]3(C)C1[C@@H]2C (some centres undefined)", "SF-295 CNS", "TGI", "> 80.5 µM"),
    ("Cc1ncc2c(=O)c3c(oc2n1)c1ccccc1n3Cc1ccccc1", "SF-295 CNS", "TGI", "> 100 µM"),
    ("O=C(c1ccccc1)c1ccc(Oc2ccc([N+](=O)[O-])cc2[N+](=O)[O-])cc1", "SF-295 CNS", "TGI", "8.51 µM"),
    ("CNC(=O)OCc1c2ccncc2c(C)c2c1[nH]c1ccccc12", "SF-295 CNS", "TGI", "4.66 µM"),
    ("CCC(=O)c1ccc2[nH]c3c(C)c4c(=O)cc(C)[nH]c4c(C)c3c2c1", "SF-295 CNS", "TGI", "> 100 µM"),
    ("CN(N)c1cc(=O)[nH]c(=O)[nH]1", "SF-295 CNS", "TGI", "> 100 µM"),
    ("CC(/C(=N\\Nc1ccccc1)c1ccc(O)cc1)C1C(=O)Oc2ccccc21 (centres undefined)", "SF-295 CNS", "TGI", "> 100 µM"),
    ("C[C@H](Nc1ncnc2nc[nH]c12)c1cc2ccc(F)cc2nc1-c1ccccn1", "SF-295 CNS", "TGI", "> 100 µM"),
    ("CNC(=O)N(CCC#N)CCCN(C(=O)NC)c1ccccc1", "SF-295 CNS", "TGI", "> 100 µM"),
]
